Reference for the values: patent US20220356245A1

- ASSAYED TARGET: T1, human CD47 (hCD47) expressed on cells (human, UniProt Q08722 19-323)
- T1 construct: Transfected CHO cells or endogenous CD47 of human cells; also called CHO-hCD47; CD47 on Raji cells
- PROTOCOL: flow cytometry, Raji cells
This section presents binders with their documented EC50 values.
Please respond with the number in µg/mL and leave the unit unwritten.

- BINDER: "h20-VH4-VL5 (candidate 20.20) (antibody, human IgG4 S228P, kappa, V domains shown, hIgG4-S228P/kappa; also called h20-H4-L5) VH: QVQLVQSGAEVKKPGSSVKVSCKASGYSFTDYYINWVRQAPGQGLEWMGRIYPGIGNTYYNKKFKGRVTITADKSTSTAYMELSSLRSEDTAVYYCARGHYGRGMDYWGQGTTVTVSS VL: DIVMTQSPDSLAVSLGERATINCKSSQSLLNSIDQKNYLAWYQQKPGQPPKLLIYFASTKESGVPDRFSGSGSGTDFTLTISGLQAEDVAVYFCQQHYSTPWTFGGGTKVEIRR"
  TEST READOUT: "EC50"
  UNIT OF MEASUREMENT: "µg/mL"
  QUANTITATIVE RESULT: 0.136
- BINDER: "h20-VH2-VL3 (candidate 20.8) (antibody, human IgG4 S228P, kappa, V domains shown, hIgG4-S228P/kappa; also called h20-H2-L3) VH: QVQLVQSGAEVKKPGASVKVSCKASGYSFTDYYINWVRQAPGQGLEWMGRIYPGIGNTYYNKKFKGRVTITRDTSASTAYMELSSLRSEDTAVYYCARGHYGRGMDYWGQGTLVTVSS VL: EIVLTQSPDSLAVSLGERATINCKSSQSLLNSIDQKNYLAWYQQKAGQSPKLLIYFASTKESGVPDRFSGSGSGTDFTLTIDSLQAEDVAVYYCQQHYSTPWTFGGGTKVEIKR"
  TEST READOUT: "EC50"
  UNIT OF MEASUREMENT: "µg/mL"
  QUANTITATIVE RESULT: 0.184
- BINDER: "h20-VH3-VL4 (candidate 20.14) (antibody, human IgG4 S228P, kappa, V domains shown, hIgG4-S228P/kappa; also called h20-H3-L4) VH: QVQLVQSGAEVKKPGASVKVSCKASGYSFTDYYINWVRQAPGQGLEWMGRIYPGIGNTYYNKKFKGRVTVTRDTSISTAHMELSSLRSDDTAVYYCARGHYGRGMDYWGQGTAVTVSS VL: DIVMTQSPDSLAVSLGERATINCKSSQSLLNSIDQKNYLAWYQQKPGQPPKLLIYFASTKESGVPDRFSGSGSGTDFTLTISSLQAEDVAVYFCQQHYSTPWTFGGGAKVEIKR"
  TEST READOUT: "EC50"
  UNIT OF MEASUREMENT: "µg/mL"
  QUANTITATIVE RESULT: 0.143
- BINDER: "h20-VH3-VL3 (candidate 20.13) (antibody, human IgG4 S228P, kappa, V domains shown, hIgG4-S228P/kappa; also called h20-H3-L3) VH: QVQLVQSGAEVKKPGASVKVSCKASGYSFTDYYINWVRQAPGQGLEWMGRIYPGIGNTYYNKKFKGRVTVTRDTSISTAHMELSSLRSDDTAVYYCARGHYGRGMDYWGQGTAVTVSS VL: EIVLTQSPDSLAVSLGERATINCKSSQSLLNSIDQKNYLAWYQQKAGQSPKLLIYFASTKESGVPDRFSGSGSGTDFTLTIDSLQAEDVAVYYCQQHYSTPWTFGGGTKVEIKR"
  TEST READOUT: "EC50"
  UNIT OF MEASUREMENT: "µg/mL"
  QUANTITATIVE RESULT: 0.147

Please examine the following record next.
Task: So what's the measured EC50 for this one? h20-VH2-VL4 (candidate 20.9) (antibody, human IgG4 S228P, kappa, V domains shown, hIgG4-S228P/kappa; also called h20-H2-L4) VH: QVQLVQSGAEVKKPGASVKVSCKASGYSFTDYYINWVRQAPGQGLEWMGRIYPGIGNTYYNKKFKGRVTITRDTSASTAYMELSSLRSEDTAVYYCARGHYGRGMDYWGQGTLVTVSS VL: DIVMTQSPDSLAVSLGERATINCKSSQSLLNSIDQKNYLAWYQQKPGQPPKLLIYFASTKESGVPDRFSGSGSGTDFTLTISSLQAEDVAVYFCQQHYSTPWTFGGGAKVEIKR
Result: 0.173
